- measurement target: EP2 (Homo sapiens, UniProt P43116)
- Sequence (P43116 whole entry): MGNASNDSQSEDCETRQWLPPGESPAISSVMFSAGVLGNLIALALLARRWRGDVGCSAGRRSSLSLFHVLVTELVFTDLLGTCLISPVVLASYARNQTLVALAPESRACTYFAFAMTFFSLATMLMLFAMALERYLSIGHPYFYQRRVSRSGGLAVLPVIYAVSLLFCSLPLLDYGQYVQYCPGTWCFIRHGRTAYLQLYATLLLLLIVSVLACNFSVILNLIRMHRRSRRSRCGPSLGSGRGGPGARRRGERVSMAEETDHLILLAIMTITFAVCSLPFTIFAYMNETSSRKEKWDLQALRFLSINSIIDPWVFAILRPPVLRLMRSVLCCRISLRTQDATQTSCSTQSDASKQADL
- experiment summary: EP2 cAMP EC50 (in vitro testing)
- Type: cell-based
pEC50: −log10 of the molar value.
observation type: pEC50

The examples below pair each entry with its known result.
CCCCCC(O)c1ccc(C2=C(C#N)CC[C@@H]2CCCc2ccc(C(=O)O)s2)cc1 (single isomer, unassigned) [drawing 85] : 9.40
CCCCCC(O)c1ccc(C2=C(C#N)CC[C@@H]2CCCc2ccc(C(=O)O)s2)cc1 (single isomer, unassigned) [drawing 84] : 9.35
CCCCCC(O)c1ccc(C2=C(CO)CC[C@@H]2CCCc2ccc(C(=O)O)s2)cc1 (some centres unmarked) [drawing 81] : 7.32
CCCCC[C@@H](O)c1ccc(C2=C(Cl)CC[C@@H]2CCCc2ccc(C(=O)O)s2)cc1 : 9.70
CCCCCC(O)c1ccc(C2=C(F)CC[C@@H]2CCCc2ccc(C(=O)O)s2)cc1 (some centres unmarked) : 9.70

I = CCCCCC(O)c1ccc(C2=C(C#N)CC[C@@H]2CCCc2ccc(C(=O)O)s2)cc1 (some centres unmarked)
II = CCCCCC(O)c1ccc(C2=C(O)C(=O)C[C@@H]2C/C=C\CCCC(=O)O)cc1 (some centres unmarked) [drawing 82]
Request: Which value of pEC50 is numerically greater: that of I or that of II ? When you have decided, please share the label of that item.
Response: II
(II: 7.27, I: 6.81)

P = CCCCC[C@H](O)c1ccc(C2=C(Cl)CC[C@@H]2CCCc2ccc(C(=O)O)s2)cc1
Q = CCCCC[C@H](O)c1ccc(C2=CCC[C@@H]2CCCc2ccc(C(=O)O)s2)cc1 [drawing 86]
R = CCCCCC(O)c1ccc(C2=C(C)CC[C@@H]2CCCc2ccc(C(=O)O)s2)cc1 (some centres unmarked) [drawing 88]
Request: // smallest pEC50 at index 0, largest at the end List the labels according to the requested ordering.
Response: R, Q, P

I = CCCCC[C@@H](O)c1ccc(C2=CCC[C@@H]2CCCc2ccc(C(=O)O)s2)cc1 [drawing 87]
II = CCCCCC(O)c1ccc(C2=C(Br)CC[C@@H]2CCCc2ccc(C(=O)O)s2)cc1 (some centres unmarked) [drawing 79]
Request: Which value of pEC50 is numerically greater: that of I or that of II ? When you have decided, please share the label of that item.
Response: II
(II: 9.40, I: 9.10)
